- assay-info: in vitro
- Type: in vitro ADME
- condition-description: human, 24 h, 100 µM, pH 7.4
So basically: % Intact Peptide in Plasma after 24 h at 50% or higher? That is Yes. Lower than 50%? That is No.

Please review the entries below; each comes with its answer.
{"molecule": "CC(C)C[C@H](NC(=O)[C@@H](NC(=O)[C@H](Cc1ccc(O)cc1)NC(=O)[C@@H]1CCCN1C(=O)[C@H](CCCNC(N)=NC(=O)NCCCCNC(=O)CN1CCN(CC(=O)O)CCN(CC(=O)O)CCN(CC(=O)O)CC1)N(C)C(=O)[C@@H](N)CCCNC(=N)N)C(C)(C)C)C(=O)O", "classification": "No"}
{"molecule": "CN[C@@H](CCCNC(=N)NC(=O)NCCOCCOCCNC(=O)CN1CCN(CC(=O)O)CCN(CC(=O)O)CCN(CC(=O)O)CC1)C(=O)N[C@@H](CCCNC(=N)N)C(=O)N1CCC[C@H]1C(=O)N[C@@H](Cc1ccc(O)cc1)C(=O)N[C@H](C(=O)N[C@@H](CC(C)C)C(=O)O)C(C)(C)C", "classification": "Yes"}
{"molecule": "CN[C@@H](CCCNC(N)=NC(=O)NCCOCCOCCNC(=O)CN1CCN(CC(=O)O)CCN(CC(=O)O)CCN(CC(=O)O)CC1)C(=O)N[C@@H](CCCNC(=N)N)C(=O)N1CCC[C@H]1C(=O)N[C@@H](Cc1ccc(O)cc1)C(=O)N[C@H](C(=O)N[C@@H](CC(C)C)C(=O)O)C(C)(C)C", "classification": "No"}
{"molecule": "CC(C)C[C@H](NC(=O)[C@@H](NC(=O)[C@H](Cc1ccc(O)cc1)NC(=O)[C@@H]1CCCN1C(=O)[C@H](CCCNC(=N)NC(=O)NCCCCNC(=O)CN1CCN(CC(=O)O)CCN(CC(=O)O)CCN(CC(=O)O)CC1)N(C)C(=O)[C@@H](N)CCCNC(=N)N)C(C)(C)C)C(=O)O", "classification": "Yes"}
{"molecule": "CN[C@@H](CCCNC(N)=NC(=O)NCCCCNC(=O)CN1CCN(CC(=O)O)CCN(CC(=O)O)CCN(CC(=O)O)CC1)C(=O)N[C@@H](CCCNC(=N)N)C(=O)N1CCC[C@H]1C(=O)N[C@@H](Cc1ccc(O)cc1)C(=O)N[C@H](C(=O)N[C@@H](CC(C)C)C(=O)O)C(C)(C)C [Compound 16]", "classification": "Yes"}

Lab note: next molecule to report on.
Please indicate if the recorded % Intact Peptide in Plasma after 24 h for CN[C@@H](CCCNC(N)=NC(=O)NCCCCNC(=O)CN1CCN(CC(=O)O)CCN(CC(=O)O)CCN(CC(=O)O)CC1)C(=O)N[C@@H](CCCNC(=N)N)C(=O)N1CCC[C@H]1C(=O)N[C@@H](Cc1ccc(O)cc1)C(=O)N[C@H](C(=O)N[C@@H](CC(C)C)C(=O)O)C(C)(C)C [Compound 21] meets or exceeds 50%.
No

* * *

- assay-info: in vivo
- condition-description: female, NMRI nude (nu/nu), mouse, total radioactivity, Uptake (%ID/g) heart
- Protocol: 8–12 weeks old female NMRI nude (nu/nu) mice (body weight 22–32 g) (Charles River, Sulzfeld, Germany) were kept under specified pathogen free (SPF) conditions at 23 °C, 55% relative humidity and a 12 h light/dark cycle in the central animal facility of the University of Regensburg using type III cages from Tecniplast (Hohenpeißenberg, Germany). […] Aliquots of the tracer stock were diluted in PBS to give a volume of 200 µL. […] Mice were killed 45 min p.i. and analyzed as described above. […]
metric: tissue uptake at 0.75 h (%ID/g)
Enter your answer as a number in %ID/g; do not include the unit.

Dear colleague, I am looking for the recorded tissue uptake at 0.75 h of the following molecule: CC[C@H](C)[C@H](NC(=O)[C@@H](NC(=O)[C@@H]1CCCN1C(=O)[C@H](CCCNC(=N)N)NC(=O)[C@H](CCCNC(N)=NC(=O)NCCCCNC(=O)CN1CCN(CC(=O)O)CCN(CC(=O)O)CCN(CC(=O)O)CC1)NC)C(C)(C)c1ccc(O)cc1)C(=O)N[C@@H](CC(C)C)C(=O)O [[^68Ga]56, metal not drawn]
0.72

Recorded values, source paper PMC9564337.
